- assayDetails: half life of the triphosphate compound (B)
- runParameters: triphosphate formed inside the cell
propertyMeasured: half-life

Output half-life of Nc1ccn([C@@H]2O[C@](CCl)(COP(=O)(O)OP(=O)(O)OP(=O)(O)O)[C@@H](O)[C@H]2F)c(=O)n1 [Compound (B)] ~17.6 h
